Read-out: Cytochrome P450 4A22 (Homo sapiens) (UniProt Q5TCH4)
Assay Overview: LTEA_HepaRG_CYP4A22: Life Technologies and Expression Analysis (LTEA) Assay for Cytochrome P450 4A22 (CYP4A22) using HepaRG (AID 2283495)
Applied Conditions: mRNA level, 48 h; actives raise or lower the signal
Activity calls are given as the source filed them. How the source made its calls: active means hit-call score of the fitted dose curve at least 0.9, where 1 is the maximum; inactive means score below 0.9.
One label from this list, please: active, inactive

Example cases with answers are listed next.
CCC(=O)O[C@H]1CC[C@H]2[C@@H]3CCC4=CC(=O)CC[C@]4(C)[C@H]3CC[C@]12C = active
O=C(O)C(F)(F)C(F)(F)C(F)(F)C(F)(F)C(F)(F)F = active
O=C(N[C@H]1CN2CCC1CC2)c1cc2ccoc2cn1 = inactive
O=C(O)C(F)(F)C(F)(F)C(F)(F)C(F)(F)C(F)(F)C(F)(F)C(F)(F)C(F)(F)C(F)(F)F = active
CC(C)(c1ccccc1)c1ccc(O)cc1 = inactive
Cc1cccc(C)c1N = inactive
Nc1ccc(-c2ccc(N)cc2)cc1 = active
Cc1ccccc1CO[C@@H]1C[C@@]2(C(C)C)CC[C@]1(C)O2 = inactive

Query :: Could you kindly confirm the outcome this assay logged for Oc1c(Cl)c(Cl)c(Cl)c(Cl)c1Cl ?
Result :: active

Query :: Repeat for the following compound: C=CC(=O)NCNC(=O)C=C
Result :: active
